Hey, just so you know, these numbers are from patent USRE47150.

Would you kindly list variant/HC_K99L for each of these binders?
EXPERIMENTAL_SYSTEM: T1, mouse tissue factor pathway inhibitor (TFPI) (mouse, UniProt O54819 29-289, limits assumed)
T1 construct: bought; also called mTFPI; murine TFPI
T1 sequence (looked up): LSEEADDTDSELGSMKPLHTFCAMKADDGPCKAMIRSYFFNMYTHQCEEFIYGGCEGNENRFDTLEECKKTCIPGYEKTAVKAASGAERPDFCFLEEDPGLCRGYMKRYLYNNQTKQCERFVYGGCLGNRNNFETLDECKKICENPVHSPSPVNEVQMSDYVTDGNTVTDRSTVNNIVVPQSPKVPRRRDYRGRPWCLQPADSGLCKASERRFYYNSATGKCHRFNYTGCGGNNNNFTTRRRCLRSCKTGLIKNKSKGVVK
EXPERIMENTAL_PROTOCOL: competitive ELISA

May I ask what variant/HC_K99L has been recorded for 2A8 HC S31V+S35L+I51D+S54F+K99V/LC N51V+D91K (Fab, V domains shown) VH: QVQLVESGGGLVQPGGSLRLSCAASGFTFRVYGMLWVRQAPGKGLEWVSSDRGFSSSTYYADSVKGRFTISRDNSKNTLYLQMNSLRAEDTAVYYCARVYRYWFDYWGQGTLVTVSS VL: DIELTQPPSVSVAPGQTARISCSGDNLRNYYAHWYQQKPGQAPVVVIYYDVNRPSGIPERFSGSNSGNTATLTISGTQAEDEADYYCQSWKDGVPVFGGGTKLTVLG ? 8.2 ratio

Same again, this time with 2A8 HC S31V+I51D+S55R+S56G+K99V/LC Y48F+D91L+V96W (Fab, V domains shown) VH: QVQLVESGGGLVQPGGSLRLSCAASGFTFRVYGMSWVRQAPGKGLEWVSSDRGSRGSTYYADSVKGRFTISRDNSKNTLYLQMNSLRAEDTAVYYCARVYRYWFDYWGQGTLVTVSS VL: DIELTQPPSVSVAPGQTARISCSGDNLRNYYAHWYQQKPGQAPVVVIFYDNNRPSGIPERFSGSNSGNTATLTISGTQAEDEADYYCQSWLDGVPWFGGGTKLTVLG 12.1 ratio

What do we get for 2A8 HC S31V+G33A+I51D+S55R+K99V/LC Y48F+D91L+V96W (Fab, V domains shown) VH: QVQLVESGGGLVQPGGSLRLSCAASGFTFRVYAMSWVRQAPGKGLEWVSSDRGSRSSTYYADSVKGRFTISRDNSKNTLYLQMNSLRAEDTAVYYCARVYRYWFDYWGQGTLVTVSS VL: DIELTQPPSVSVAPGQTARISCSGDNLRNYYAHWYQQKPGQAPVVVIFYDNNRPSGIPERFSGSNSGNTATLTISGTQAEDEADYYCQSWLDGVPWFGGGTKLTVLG ? 4.7 ratio
